- target entity: IGPD (imidazole glycerol phosphate dehydratase) (Staphylococcus xylosus)
- Construct: recombinant, pET30a-hisB, E. coli host; His tag implied (coupled to Octet NTA sensor)
- experiment: bio-layer interferometry (Octet, IGPD on NTA tip)
outcome measure: pKd
The read-out pKd is expressed as -log10 of concentration in moles per litre.

Query string: Note down pKd recorded for C[C@@H]1O[C@@H](OC[C@H]2O[C@@H](Oc3c(-c4ccc(O)c(O)c4)oc4cc(O)cc(O)c4c3=O)[C@H](O)[C@@H](O)[C@@H]2O)[C@H](O)[C@H](O)[C@H]1O
Result string: 3.00

Provenance of the data: paper PMC8385535
